Tested on: Escherichia coli TOP10;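 also: peptides expressed intracellularly from a pBAD plasmid library in pooled LB shake-flask culture, induced with 0.3% L-arabinose, DNA abundance read by NGS, three biological replicates, DESeq2 with apeglm shrinkage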
Assay: shrunken log2 fold change of peptide-encoding DNA abundance (4.5 h post-induction vs induction); higher = less antimicrobial activity (less host growth inhibition)
Settings: time post-induction: 4.5 h; library: site-saturation at positions 5, 18, 19, 20
Can you tell me shrunken log2 fold change for the items I'm about to list?
Form field (numeric): enter value without unit.

Which shrunken log2 fold change is reported for this sequence? `RRIRWRPPRLPRPRPRPGRVPRP`
0.37

Please do the same for `RRIRFRPPRLPRPRPRPLRWPRP` as well.
0.59

Input `RRIRQRPPRLPRPRPRPNLEPRP`
-0.136

Another sequence to look at: `RRIRGRPPRLPRPRPRPDVGPRP`
0.434

Repeat for the following sequence: `RRIRGRPPRLPRPRPRPKEEPRP`
1.58

Do the same for `RRIRDRPPRLPRPRPRPFGDPRP` please
-0.0062

Same read-out for `RRIRDRPPRLPRPRPRPMCGPRP` ?
1.12

Consider next the sequence `RRIRARPPRLPRPRPRPGFNPRP` in the same way.
0.252
